- method_notes: COS7 lysate on small-molecule microarray, probe aHis, 635 nm (AID 1123);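 also: z-score combines 667nm fluorescence intensity with signal-to-noise per printed compound spot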
- condition_parameters: COS7 cell lysate, fluorescence, higher = more signal
Label TRUE for high-side composite z-score (at or above 0.7) and FALSE for low-side composite z-score (below it).

compound: C#CCCCON=C1C[C@@H](O)[C@@H](O)[C@@H]2[C@@H]3C(=O)N(c4ccc(F)cc4F)C(=O)[C@@H]3CC[C@H]12
label_value: TRUE
--
compound: C=COC[C@@H]1CN2[C@@H](CC[C@@H](C)[C@@H]2c2ccc(Br)cc2)C(=O)O1
label_value: FALSE
--
compound: C[C@@H](c1ccccc1)N1C(=O)[C@H]2[C@H]3[C@H](O)[C@H](O)CC(=NO[C@@H]4O[C@H](CO)[C@@H](O)[C@H](O)[C@H]4O)[C@@H]3CC[C@H]2C1=O
label_value: FALSE

Q: Confirm if composite z-score reported for the compound "O=C1[C@H]2[C@H]3[C@H](O)[C@H](O)CC(=NOCc4ccccc4)[C@H]3CC[C@H]2C(=O)N1Cc1ccc2c(c1)OCO2" is 0.7 or above.
Ans: TRUE

Q: Queued: "COC(=O)C=CCCc1coc(C=CCNC(=O)OC)n1"
Ans: FALSE

Q: Then "C#CCCCON=C1C[C@@H](O)[C@@H](O)[C@@H]2[C@@H]3C(=O)N(c4cccc(Oc5ccccc5)c4)C(=O)[C@@H]3CC[C@H]12" ?
Ans: FALSE

Q: And then CC(C)C[C@H](NC(=O)CCC1CC(OC(=O)NCc2cccc3ccccc23)CC2(CCCC(COC(=O)NCc3ccccc3)O2)O1)C(=O)NCC(c1ccccc1)c1ccccc1 (stereo not given in full) , what is it?
Ans: TRUE

Q: Continue with O=C1CCCC=C1C(CCc1ccccc1)OC(=O)c1ccc(Br)cc1 (stereo not given)
Ans: FALSE

Q: Quick one: "COC(=O)C1=C(C)N(Cc2ccccc2)[C@]23O[C@](C(=O)OC)(C(=O)N2[C@@H]1c1ccccc1)C(C(=O)OC)=C3C(=O)OC"
Ans: FALSE

Q: Next compound up: CCOC(=O)[C@H](CC(C)C)NC(=O)CCC1CC(OC(=O)NCc2cccc3ccccc23)CC2(CCCC(COC(=O)NCCOC)O2)O1 (stereo not given in full)
Ans: TRUE

Q: Repeat with CCOC(=O)[C@H](Cc1ccccc1)NC(=O)CCC1CC(OC(=O)NCc2ccc3c(c2)OCO3)CC2(CCCC(COC(=O)NCCc3ccccc3OC)O2)O1 (stereo not given in full)
Ans: TRUE

Q: Entry to check: "Cc1ccc(S(=O)(=O)n2c3ccccc3c3nnc(C(=O)c4ccccc4)nc32)cc1"
Ans: FALSE

Q: How about this compound: "O=C1C[C@@H](O)[C@@H](O)[C@@H]2[C@@H]3C(=O)N(C[C@@H]4CCCO4)C(=O)[C@@H]3CC[C@@H]12"
Ans: TRUE

Q: Also "CCOC(=O)NN=C1C[C@@H](O)[C@@H](O)[C@@H]2[C@@H]3C(=O)N([C@@H](C)c4ccccc4)C(=O)[C@@H]3CC[C@@H]12" , if possible.
Ans: FALSE

Q: What do we get for "CC(C)(C)N1C(=O)[C@H]2[C@H]3[C@H](O)[C@H](O)CC(=NOCc4ccccc4)[C@H]3CC[C@H]2C1=O" ?
Ans: FALSE
